Task for the reader: assign each of the following molecules its reported remaining at 0.5 h.
# Test Description: Metabolic stability in human liver microsomes incubated for 30 mins in the presence of NADPH by LC-MS/MS analysis
# Type: ADME, Microsome
# Applied Conditions: read-out: Stability
Starred links: 1 amine or outer side, 2 acyl side, 3 side chain; linkers in the order of their positions; H or OH if unused. Positions of bridges follow the written chain, without caps; N, C: chain ends. Non-standard residues stand in square brackets, D forms with d. Residues, ends and D or L forms follow the SMILES beside them. NHCH2CH2SCH2CO = O=C(CSCCN[*:1])[*:2]; NMeF = CN[C@@H](Cc1ccccc1)C(=O)O; hCha = N[C@@H](CCC1CCCCC1)C(=O)O; X1 = CC(C)(CN[*:1])SCC(=O)[*:2]; X2 = CC(C)(SCCN[*:1])C(=O)[*:2]; Pen = CC(C)(S)[C@H](N)C(=O)O; αMeP = C[C@@]1(C(=O)O)CCCN1
One number for each entry, in %.

Parameter requested: remaining at 0.5 h. Apply to each item below.
1. CC(C)C[C@@H]1NC(=O)[C@H](C(C)C)NC(=O)[C@]2(C)CCCN2C(=O)[C@H](C(C)C)NC(=O)[C@H](Cc2ccccc2)NC(=O)C(C)(C)SCCNC(=O)[C@H](C)NC(=O)[C@H](Cc2ccccc2)N(C)C(=O)[C@H](CC(C)C)NC(=O)[C@H](CCC2CCCCC2)NC1=O (cyclo(A[X2]FV[αMeP]VL[hCha]L[NMeF]))
2. COC(=O)[C@H]1NC(=O)[C@H](C)NC(=O)[C@H](Cc2ccccc2)N(C)C(=O)[C@H](CC(C)C)NC(=O)[C@H](CCC2CCCCC2)NC(=O)[C@H](CC(C)C)NC(=O)[C@H](C(C)C)NC(=O)[C@]2(C)CCCN2C(=O)[C@H](C(C)C)NC(=O)[C@H](Cc2ccccc2)NC(=O)CSC1(C)C ({CH2CO}-FV[αMeP]VL[hCha]L[NMeF]A[Pen]-OMe; thioether N-10)
3. CC(C)C[C@@H]1NC(=O)[C@H](C(C)C)NC(=O)[C@]2(C)CCCN2C(=O)[C@H](C(C)C)NC(=O)[C@H](Cc2ccccc2)NC(=O)CSCCNC(=O)[C@H](C)NC(=O)[C@H](Cc2ccccc2)N(C)C(=O)[C@H](CC(C)C)NC(=O)[C@H](CCC2CCCCC2)NC1=O (cyclo(A[NHCH2CH2SCH2CO]FV[αMeP]VL[hCha]L[NMeF]))
4. CC(C)C[C@@H]1NC(=O)[C@H](C(C)C)NC(=O)[C@@H]2CCCN2C(=O)[C@H](C(C)C)NC(=O)[C@H](Cc2ccccc2)NC(=O)CSCCNC(=O)CNC(=O)[C@H](Cc2ccccc2)N(C)C(=O)[C@H](CC(C)C)NC(=O)[C@H](Cc2c[nH]c3ccccc23)NC1=O (cyclo(FVPVLWL[NMeF]G[NHCH2CH2SCH2CO]))
5. CC(C)C[C@@H]1NC(=O)[C@H](C(C)C)NC(=O)[C@]2(C)CCCN2C(=O)[C@H](C(C)C)NC(=O)[C@H](Cc2ccccc2)NC(=O)CSC(C)(C)CNC(=O)[C@H](C)NC(=O)[C@H](Cc2ccccc2)N(C)C(=O)[C@H](CC(C)C)NC(=O)[C@H](CCC2CCCCC2)NC1=O (cyclo(A[X1]FV[αMeP]VL[hCha]L[NMeF]))

28
23
8
3
20
